assay: Cytotoxicity against human MT4 cells assessed as reduction in cell viability measured after 5 days by MTT assay; type: toxicity, cell-based; details: time 5 day
property_measured: CC50 at 120 h (µM)
Numbers only, in µM.

# compound, CC50 at 120 h [µM]
data = [
    ("N#Cc1ccc(S(=O)(=O)N2CCN(C(=O)c3cc(O)c(O)c(O)c3)C(C(=O)NCc3ccc4ccccc4c3)C2)cc1 (centres undefined)", 213),
    ("COc1ccc(CNC(=O)C2CN(S(=O)(=O)c3ccc(N)cc3)CCN2C(=O)c2cc(O)c(O)c(O)c2)cc1 (centres undefined)", 21.7),
    ("Nc1ccc(S(=O)(=O)N2CCN(C(=O)c3cc(O)c(O)c(O)c3)C(C(=O)NCc3ccco3)C2)cc1 (centres undefined)", 24.7),
]

Field: next compound
Exercise: I'd like to know its CC50 at 120 h. The compound in question is Nc1ccc(S(=O)(=O)N2CCN(C(=O)c3cc(O)c(O)c(O)c3)C(C(=O)Nc3ccccc3)C2)cc1 (centres undefined)
Solution: 50.8

* * *

molecular target: Human immunodeficiency virus type 1 reverse transcriptase (Human immunodeficiency virus 1, UniProt Q72547); test: Inhibition of wild-type recombinant HIV-1 group M subtype B BH10 reverse transcriptase RNase-associated RNase H activity expressed in Escherichia coli XL1 blue using 32P-labeled 5'-UUUUUUUUUAGGAUACAUAUGGUUAAAGUAU-3'/5'-ATACTTTAACCATATGTATCC-3' RNA/DNA template-primer as substrate preincubated for 5 mins followed by substrate addition and measured after 15 mins by phosphorimaging analysis
pIC50: −log10 of the molar value.
property_measured: pIC50

Below: 5 compounds and their reported pIC50.
# compound, value_measured
measured = [
    ("N#Cc1ccc(S(=O)(=O)N2CCN(C(=O)c3cc(O)c(O)c(O)c3)C(C(=O)NCc3ccc(-c4ccccc4)cc3)C2)cc1 (stereo unspecified)", 6.39),
    ("CN(C(=O)C1CN(S(=O)(=O)c2ccc(C#N)cc2)CCN1C(=O)c1cc(O)c(O)c(O)c1)c1ccccc1 (stereo unspecified)", 6.51),
    ("Nc1ccc(S(=O)(=O)N2CCN(C(=O)c3cc(O)c(O)c(O)c3)C(C(=O)NCc3ccc(-c4ccccc4)cc3)C2)cc1 (stereo unspecified)", "< 4.00"),
    ("N#Cc1ccc(S(=O)(=O)N2CCN(C(=O)c3cc(O)c(O)c(O)c3)C(C(=O)NCc3ccco3)C2)cc1 (stereo unspecified)", "< 4.70"),
    ("Nc1ccc(S(=O)(=O)N2CCN(C(=O)c3cc(O)c(O)c(O)c3)C(C(=O)NCc3cccs3)C2)cc1 (stereo unspecified)", "< 4.00"),
]

Exercise: What pIC50 value was documented for this compound, COc1ccc(CNC(=O)C2CN(S(=O)(=O)c3ccc(C#N)cc3)CCN2C(=O)c2cc(O)c(O)c(O)c2)cc1 (stereo unspecified) ?
Solution: < 5.00
